Would you kindly list EC50 for each of these molecules?
Molecular target: TAS2R13 (Homo sapiens)
Sequence (Q9NYV9 1-303): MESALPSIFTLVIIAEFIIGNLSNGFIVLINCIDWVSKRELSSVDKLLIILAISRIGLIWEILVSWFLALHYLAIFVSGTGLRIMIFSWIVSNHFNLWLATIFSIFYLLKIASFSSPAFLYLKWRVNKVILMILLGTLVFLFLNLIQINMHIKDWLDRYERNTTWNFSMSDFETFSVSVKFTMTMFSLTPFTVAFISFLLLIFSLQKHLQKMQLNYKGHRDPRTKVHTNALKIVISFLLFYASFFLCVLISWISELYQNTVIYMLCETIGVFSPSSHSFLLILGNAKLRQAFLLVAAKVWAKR
Assay: Calcium fluorescence functional assay, TAS2R13 cell line with mouse Gα15
Details: approximately; increasing concentrations of tastant

# EC50 (molecule: O=C([O-])c1ccccc1.[K+] [potassium benzoate] ) is 5 to 10 mM

// recorded EC50 for CC(=O)[O-].[K+] [potassium acetate] : 5 to 10 mM
